# subject-of-test: Cytochrome P450 2D6 (Homo sapiens, UniProt P10635)
# Sequence (P10635 whole entry): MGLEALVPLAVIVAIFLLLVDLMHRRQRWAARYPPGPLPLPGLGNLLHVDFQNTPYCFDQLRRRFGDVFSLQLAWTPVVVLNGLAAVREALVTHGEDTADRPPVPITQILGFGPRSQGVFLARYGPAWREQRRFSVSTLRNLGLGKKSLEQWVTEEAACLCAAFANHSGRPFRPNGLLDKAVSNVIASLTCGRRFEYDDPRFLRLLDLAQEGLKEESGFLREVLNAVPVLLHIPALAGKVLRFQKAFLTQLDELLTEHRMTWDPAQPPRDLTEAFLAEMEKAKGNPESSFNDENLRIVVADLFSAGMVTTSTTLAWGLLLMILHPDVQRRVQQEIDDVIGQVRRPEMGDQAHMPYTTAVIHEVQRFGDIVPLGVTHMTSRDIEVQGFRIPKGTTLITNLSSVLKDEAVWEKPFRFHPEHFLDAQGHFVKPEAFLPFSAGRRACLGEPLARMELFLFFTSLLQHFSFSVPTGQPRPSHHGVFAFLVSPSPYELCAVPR
pIC50: −log10 of the molar value.
reported-metric: pIC50

COc1ncc2cc1NS(=O)(=O)c1cccc(c1)C(=O)NCc1cncc(c1)-c1cnc3ccc-2cn13 | < 4.52

----------
# experiment-summary: AUC(infinity) in BALB/c mouse at 10 mg/kg, po measured for 8 hrs
# Type: ADME, organism-based
# Design: route oral, time 8 hrs, dose 10 mg/kg
# condition-label: in vivo
# reported AUC(0-inf); entries follow
reported-metric: AUC(0-inf) (ng·h/mL)

COc1ncc2cc1NS(=O)(=O)c1cccc(c1)C(=O)NCc1cncc(c1)-c1ncnc3ccc-2cc13 | 8760
COc1ncc2cc1NS(=O)(=O)c1cccc(c1)C(=O)NCc1cncc(c1)-c1cnc3ccc-2cn13 | 4480
COc1ncc2cc1NS(=O)(=O)c1cc(c(F)cc1F)C(=O)NCc1cncc(c1)-c1ccnc3ccc-2cc13 | 7680
